B1: KLHL14 (parent)
chain: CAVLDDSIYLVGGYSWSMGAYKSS

- Variants of: B1
- Experiment summary: protein stability index of a GFP-peptide fusion (GPS, HEK-293T) (PSI 1-6); higher = more stable;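 further: lentivirally expressed fusions sorted by FACS into six bins by GFP to DsRed ratio, PSI derived from sequencing read proportions per bin multiplied by bin number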
- Settings: c terminus: a fixed tail appended
Exercise: for every item that follows, state its recorded protein stability index.

Consider `CAVLDDSIYLVGGYSSSMGAYKSS` . Its measured protein stability index is 2.01

Consider `CAVLDDSIYLVGDYSWSMGAYKSS` . Its measured protein stability index is 1.98

Consider `GAVLDDSIYLVGGYSWSMGAYKSS` . Its measured protein stability index is 2

Consider `CAVLSDSIYLVGGYSWSMGAYKSS` . Its measured protein stability index is 2

Consider `CAVLDDSIYLVGGYSYSMGAYKSS` . Its measured protein stability index is 2.02

Consider `CAVLDDAIYLVGGYSWSMGAYKSS` . Its measured protein stability index is 2.04

Consider `CAVLDDSIYMVGGYSWSMGAYKSS` . Its measured protein stability index is 1.95

Consider `CAVLDDSIYKVGGYSWSMGAYKSS` . Its measured protein stability index is 2.05
